System: ATP;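 also: ATP exposure 15 min at 22 °C before imaging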
Experiment: switch fluorescence ratio, 500 uM ATP over buffer (Cy3 cluster intensity, sum of 5 cycles each) (fold (ratio)); higher = stronger signal-on switching upon ATP binding; sequences stand for … in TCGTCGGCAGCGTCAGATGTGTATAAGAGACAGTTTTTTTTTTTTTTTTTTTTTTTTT…TC
Settings: aptamer strand: ATP DNA aptamer (quencher-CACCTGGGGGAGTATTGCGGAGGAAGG + anchor), 100 nM annealed; ATP concentration: 500 uM
measuredMetric: switch fluorescence ratio
Lab note: jot the number down without any unit.

Task: Would you kindly share the measured switch fluorescence ratio for `AAATACCGGC` ?
Output: 1.1

Task: Try this sequence next: `CTCGGGGGGC`
Output: 0.992

Task: Try this sequence next: `TCAGCAATCG`
Output: 2.57

Task: Try this sequence next: `GGTAGTAGGC`
Output: 1.01

Task: Try this sequence next: `GGGGACGTCG`
Output: 0.997

Task: Try this sequence next: `CTTGTTAGTA`
Output: 0.987

Task: Try this sequence next: `TTGGTATAGT`
Output: 1

Task: Try this sequence next: `TTCCGAAAGA`
Output: 1.11

Task: Try this sequence next: `CCCAATTTGA`
Output: 1.06

Task: Try this sequence next: `GGGGGGCTTC`
Output: 0.975

Task: Try this sequence next: `TGTTCGGCGG`
Output: 1.02

Task: Try this sequence next: `AAGACTCGGT`
Output: 0.952

Task: Try this sequence next: `ATGTGTCTG`
Output: 0.987

Task: Try this sequence next: `TGTGACAGTT`
Output: 1.09

Task: Try this sequence next: `TGGAAGAGGC`
Output: 1.47

Task: Try this sequence next: `ATTGTTTGTT`
Output: 1.01

Task: Try this sequence next: `TTTTTTGTCA`
Output: 1.02

Task: Try this sequence next: `ACGATGTATC`
Output: 1.06

Task: Try this sequence next: `TAACGGCCTC`
Output: 1.04

Task: Try this sequence next: `TATTTGGATC`
Output: 0.991

Task: Try this sequence next: `TCGTTTGTGG`
Output: 1.04

Task: Try this sequence next: `AGATCCATTT`
Output: 0.991

Task: Try this sequence next: `GAGGGAGAAA`
Output: 1.03

Task: Try this sequence next: `AATTGTAAGA`
Output: 0.992

Task: Try this sequence next: `ACTCTGCCGG`
Output: 1.2

Task: Try this sequence next: `GTTGTGCTTT`
Output: 0.984

Task: Try this sequence next: `CGGAGCAGGT`
Output: 2.09

Task: Try this sequence next: `TTTTTTATAC`
Output: 1.02

Task: Try this sequence next: `GCCTATAGTC`
Output: 0.991

Task: Try this sequence next: `GATTTGCAGA`
Output: 1

Task: Try this sequence next: `AGGTACGGGA`
Output: 1.03

Task: Try this sequence next: `TTGGGGCTGA`
Output: 0.993

Task: Try this sequence next: `ACGGGTCGGA`
Output: 1

Task: Try this sequence next: `GTGGAGGGTG`
Output: 1.05

Task: Try this sequence next: `CGTGGGGGCA`
Output: 0.954

Task: Try this sequence next: `GACTGTTCGG`
Output: 0.985

Task: Try this sequence next: `GATCCCAGAG`
Output: 1.16

Task: Try this sequence next: `TTATTAGATG`
Output: 0.997

Task: Try this sequence next: `TACGGGGAT`
Output: 1.84

Task: Try this sequence next: `GTGGGGGTCG`
Output: 0.98

Task: Try this sequence next: `TTCTGGAAAA`
Output: 1.05

Task: Try this sequence next: `ATTCGAGGGG`
Output: 1.03

Task: Try this sequence next: `TAAGGAAAGA`
Output: 1.08

---

Kindly state switch fluorescence ratio for each of the entries shown.
Test system: ATP;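 also: ATP exposure 15 min at 22 °C before imaging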
Test: switch fluorescence ratio, 500 uM ATP over buffer (Cy3 cluster intensity, sum of 5 cycles each) (fold (ratio)); higher = stronger signal-on switching upon ATP binding; sequences stand for … in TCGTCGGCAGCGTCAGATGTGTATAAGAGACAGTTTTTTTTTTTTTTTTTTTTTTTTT…TC
Conditions: aptamer strand: ATP DNA aptamer (quencher-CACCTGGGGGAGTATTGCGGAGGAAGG + anchor), 100 nM annealed; ATP concentration: 500 uM
Lab note: jot the number down without any unit.

Task: Would you kindly share the measured switch fluorescence ratio for `TGCAGACGGT` ?
Output: 1.2

Task: Try this sequence next: `TAGAGTTTTA`
Output: 0.972

Task: Try this sequence next: `CGCTAATGCG`
Output: 1.04

Task: Try this sequence next: `TAAGGAAAGT`
Output: 0.991

Task: Try this sequence next: `TTAGTCGTGC`
Output: 1.01

Task: Try this sequence next: `ATACGATGTA`
Output: 0.986

Task: Try this sequence next: `GGGGTTCAGC`
Output: 0.978

Task: Try this sequence next: `AAACACGGTG`
Output: 1.19

Task: Try this sequence next: `CATGTGGGTG`
Output: 1

Task: Try this sequence next: `GGGGCGAACG`
Output: 0.977

Task: Try this sequence next: `GATGTGTTTC`
Output: 1.03

Task: Try this sequence next: `AACCGTGGTG`
Output: 1.05

Task: Try this sequence next: `TTGTATTAAT`
Output: 0.975

Task: Try this sequence next: `AAGAGTCGGG`
Output: 0.972

Task: Try this sequence next: `ATCATCGGGG`
Output: 0.988

Task: Try this sequence next: `CAATAATGTA`
Output: 1.03

Task: Try this sequence next: `TAAGGTTTGG`
Output: 0.986

Task: Try this sequence next: `GCTGTATATT`
Output: 0.993

Task: Try this sequence next: `ATCTAGTACG`
Output: 1.02

Task: Try this sequence next: `GCTGGGCACT`
Output: 1.01

Task: Try this sequence next: `TTTACGGAGA`
Output: 1.03

Task: Try this sequence next: `TAATTCGACT`
Output: 1.02

Task: Try this sequence next: `TTTAAGAGGT`
Output: 0.982

Task: Try this sequence next: `AAGTGCTGTG`
Output: 0.996

Task: Try this sequence next: `TAAAGTTACG`
Output: 1.06

Task: Try this sequence next: `TTGTATAATT`
Output: 0.969

Task: Try this sequence next: `TGGTGGAGGG`
Output: 1

Task: Try this sequence next: `TGGGACTGTT`
Output: 0.986

Task: Try this sequence next: `TTTCTGGCTG`
Output: 1.02

Task: Try this sequence next: `AAAGGCCTG`
Output: 1.01

Task: Try this sequence next: `ATTCAGGTC`
Output: 1

Task: Try this sequence next: `TTGAAGAAAA`
Output: 1.97

Task: Try this sequence next: `CCAACTGGGA`
Output: 1.05

Task: Try this sequence next: `TGCGTTGCTA`
Output: 0.996

Task: Try this sequence next: `TCTTGCATAA`
Output: 1.07

Task: Try this sequence next: `TTGGGGTAG`
Output: 1.02

Task: Try this sequence next: `AGGGTTGAAC`
Output: 1

Task: Try this sequence next: `GCGGGAGGGT`
Output: 1.01

Task: Try this sequence next: `GCCCTAAGGC`
Output: 0.979

Task: Try this sequence next: `TAAGCCGCGT`
Output: 1.01

Task: Try this sequence next: `ACTGGGTAGA`
Output: 1.03

Task: Try this sequence next: `CGGGAGCGGA`
Output: 0.995

Task: Try this sequence next: `AATCGGGGGT`
Output: 1
